Molecular target: Fuc(a1-2)[GalNAc(a1-3)]Gal(b1-3)GlcNAc(b1-3)GalNAc
Test: glycan array binding signal (z-score within array); higher = stronger binding
Conditions: glycan notation: IUPAC condensed, linker removed
The full list was thinned out, with the strongest signals kept by preference.
Value kind: glycan array binding signal (z-score)
Enter the number alone.

- PpFlo3 (Pichia pastoris) (protein) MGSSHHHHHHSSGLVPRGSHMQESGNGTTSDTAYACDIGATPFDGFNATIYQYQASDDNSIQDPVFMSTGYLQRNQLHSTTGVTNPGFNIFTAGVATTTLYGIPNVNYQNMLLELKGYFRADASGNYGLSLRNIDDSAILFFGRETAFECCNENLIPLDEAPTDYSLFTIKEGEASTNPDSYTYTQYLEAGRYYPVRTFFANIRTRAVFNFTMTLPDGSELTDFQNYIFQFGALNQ: -0.014

Then there is this binder:
Problem: Which value of glycan array binding signal (z-score) has been reported for Clec49 (Caenorhabditis elegans) (protein) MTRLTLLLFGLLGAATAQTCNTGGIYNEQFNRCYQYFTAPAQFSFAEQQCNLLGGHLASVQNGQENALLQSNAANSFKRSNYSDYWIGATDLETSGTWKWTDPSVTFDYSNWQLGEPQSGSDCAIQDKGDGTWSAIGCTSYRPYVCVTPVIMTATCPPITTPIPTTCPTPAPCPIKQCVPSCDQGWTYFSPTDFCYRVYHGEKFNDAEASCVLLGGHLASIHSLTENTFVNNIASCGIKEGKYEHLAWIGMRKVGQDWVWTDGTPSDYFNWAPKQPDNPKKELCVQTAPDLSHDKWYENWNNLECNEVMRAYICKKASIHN in the records?
Result: 4.18
